experimental_protocol: in vivo
Format: in vivo, mice
test_conditions: male, CD-1, mouse, plasma, iv, 10 mg/kg, mice, IV 10 mg/kg, plasma, 240 min; read-out: Plasma concentration C (mean)
measured_metric: concentration at 240 min (ng/mL)

- compound: "O=C([O-])C1CCC2(CC1)CC(Nc1ncnc3[nH]c4c(F)cccc4c13)C2.[Na+] (stereo not shown) [Compound 77]"
  measured_metric: "concentration at 240 min"
  unit_tag: "ng/mL"
  experimental_result: 2080

---

experimental_protocol: in vivo
Format: in vivo, mice
test_conditions: male, CD-1, mouse, brain, ip, 10 mg/kg, mice, IP 10 mg/kg, brain, 30 min, individual animals; read-out: Brain concentration, Final
measured_metric: concentration at 30 min (ng/g)

- molecule: "O=C(O)C1CCC2(CC1)CC(Nc1ncnc3[nH]c4c(F)cccc4c13)C2 (stereo not shown) [Compound 74]"
  measured_metric: "concentration at 30 min"
  experimental_result: 150

---

# Ki listing for each entry below
system_under_test: EP4R (Homo sapiens, UniProt P35408)
Construct: Tango fusion cassette (only 'tango' is printed); expressed in transfected cells; host or cells: HTLA cells (tTA-dependent luciferase reporter, β-arrestin2-TEV fusion)
Sequence (P35408 whole entry, the tested form may be a part): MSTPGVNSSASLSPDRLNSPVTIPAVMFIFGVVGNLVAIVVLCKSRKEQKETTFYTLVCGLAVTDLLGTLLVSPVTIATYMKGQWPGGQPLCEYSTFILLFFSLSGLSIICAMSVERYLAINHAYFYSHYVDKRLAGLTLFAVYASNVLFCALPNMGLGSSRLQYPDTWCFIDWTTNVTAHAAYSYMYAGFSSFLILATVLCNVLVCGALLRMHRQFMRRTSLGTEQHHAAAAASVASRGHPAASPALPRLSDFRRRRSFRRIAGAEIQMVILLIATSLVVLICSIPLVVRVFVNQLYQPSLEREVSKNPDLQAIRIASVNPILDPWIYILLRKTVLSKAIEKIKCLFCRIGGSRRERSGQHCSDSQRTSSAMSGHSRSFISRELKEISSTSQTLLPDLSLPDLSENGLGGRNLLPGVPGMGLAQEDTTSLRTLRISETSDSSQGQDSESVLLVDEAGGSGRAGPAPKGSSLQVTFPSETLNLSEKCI
experimental_protocol: PRESTO-Tango β-arrestin2 recruitment assay
Format: cell-based
test_conditions: PRESTO-Tango Ki* (nM)

- compound: "CN(c1ncnc2[nH]c3ccccc3c12)C1CC2(CCC(C(=O)O)CC2)C1 (centres unmarked) [Compound 76]"
  system_under_test: "EP4R (Homo sapiens, UniProt P35408)"
  Ki: "234 nM"
- compound: "O=C(O)C1CCC2(CC1)CC(Nc1ncnc3[nH]c4cc(F)ccc4c13)C2 (centres unmarked) [Compound 134]"
  system_under_test: "EP4R (Homo sapiens, UniProt P35408)"
  Ki: "41 nM"
- compound: "O=C(O)C1CCC2(CC1)CC(Nc1ncnc3[nH]c4ccc(Br)cc4c13)C2 (centres unmarked) [Compound 135]"
  system_under_test: "EP4R (Homo sapiens, UniProt P35408)"
  Ki: "18.3 nM"
- compound: "O=C(O)C1CCC2(CC1)CC(Nc1ncnc3c1oc1ccccc13)C2 (centres unmarked) [Compound 84]"
  system_under_test: "EP4R (Homo sapiens, UniProt P35408)"
  Ki: "1150 nM"
- compound: "Cn1c2ccccc2c2c(NC3CC4(CCC(C(=O)O)CC4)C3)ncnc21 (centres unmarked) [Compound 75]"
  system_under_test: "EP4R (Homo sapiens, UniProt P35408)"
  Ki: "121 nM"
- compound: "CN(C(=O)c1nn(-c2ccccc2)c2c1CCC2)C1CCCC(C(=O)O)CC1 (centres unmarked) [Compound 131]"
  system_under_test: "EP4R (Homo sapiens, UniProt P35408)"
  Ki: "376 nM"
- compound: "Cc1cc(C(=O)NC2CCCC(C(=O)O)CC2)c(C)n1-c1ccccc1 (centres unmarked) [Compound 78]"
  system_under_test: "EP4R (Homo sapiens, UniProt P35408)"
  Ki: "1420 nM"
- compound: "O=C(N[C@@H]1CC[C@@H](C(=O)O)CCC1(F)F)c1nn(-c2ccccc2F)c2c1CCC2 [Compound 118]"
  system_under_test: "EP4R (Homo sapiens, UniProt P35408)"
  Ki: "757 nM"
- compound: "CN1C(=O)C(=Cc2cccc(OCC(=O)O)c2)c2cc(Br)cnc21 [Compound 62]"
  system_under_test: "EP4R (Homo sapiens, UniProt P35408)"
  Ki: "702 nM"
- compound: "O=C(O)C1CCC2(CC1)CC(Nc1ncnc3sc4c(c13)CCC4)C2 (centres unmarked) [Compound 91]"
  system_under_test: "EP4R (Homo sapiens, UniProt P35408)"
  Ki: "807 nM"
- compound: "O=C(O)C[C@@H]1CC[C@H](NC(=O)c2csc(C3CCCCC3)c2)C1 [Compound 100]"
  system_under_test: "EP4R (Homo sapiens, UniProt P35408)"
  Ki: "376 nM"

---

system_under_test: EP4R (Homo sapiens, UniProt P35408)
Construct: Tango fusion cassette (only 'tango' is printed); expressed in transfected cells; host or cells: HTLA cells (tTA-dependent luciferase reporter, β-arrestin2-TEV fusion)
experimental_protocol: PRESTO-Tango β-arrestin2 recruitment assay
Format: cell-based
test_conditions: PRESTO-Tango IC50 (nM), antagonist mode, EC80 of PGE2

- compound: "O=C(O)Cc1ccc(NC(=O)c2cc(C3CC3)nc3ccc(F)cc23)cc1 [Compound 68]"
  unit_tag: "nM"
  reported_relation: ">"
  IC50: 10000
- compound: "O=C(NC1CCCC(C(=O)O)CC1)c1csc(C2CCCCC2)n1 (centres unmarked) [Compound 106]"
  unit_tag: "nM"
  reported_relation: ">"
  IC50: 10000
- compound: "O=C(N[C@@H]1CC[C@@H](C(=O)O)CCC1(F)F)c1nn(-c2ccccc2)c2c1CCC2 [Compound 125]"
  unit_tag: "nM"
  reported_relation: "="
  IC50: 1640
- compound: "COc1cccc(-n2c(C)cc(C(=O)NC3CCCC(C(=O)O)CC3)c2C)c1 (centres unmarked) [Compound 117]"
  unit_tag: "nM"
  reported_relation: ">"
  IC50: 10000
- compound: "Cc1nc(NC2CC3(CCC(C(=O)O)CC3)C2)c2cc(-c3ccccc3)sc2n1 (centres unmarked) [Compound 93]"
  unit_tag: "nM"
  reported_relation: "="
  IC50: 7350
- compound: "CN1C(=O)C(=Cc2cccc(OCC(=O)O)c2)c2cc(Br)cnc21 [Compound 62]"
  unit_tag: "nM"
  reported_relation: "="
  IC50: 3510
- compound: "O=C(O)C1CCC2(CC1)CC(Nc1ncnc3sc(-c4ccccc4)cc13)C2 (centres unmarked) [Compound 85]"
  unit_tag: "nM"
  reported_relation: ">"
  IC50: 10000
- compound: "Cc1cc(C(=O)NC2CCCC(C(=O)O)CC2)c(C)n1-c1ccccc1 (centres unmarked) [Compound 78]"
  unit_tag: "nM"
  reported_relation: "="
  IC50: 7080
- compound: "Cc1cc(C(=O)NC2CCCC(C(=O)O)CC2)c(C)n1-c1ccc(C(C)C)cc1 (centres unmarked) [Compound 122]"
  unit_tag: "nM"
  reported_relation: "="
  IC50: 1150
- compound: "O=C(N[C@@H]1CC[C@@H](C(=O)O)CCC1(F)F)c1nn(-c2ccc(F)cc2)c2c1CCC2 [Compound 127]"
  unit_tag: "nM"
  reported_relation: "="
  IC50: 2170
- compound: "O=C(O)C1CCC2(CC1)CC(Nc1nc(C(F)(F)F)nc3ccccc13)C2 (centres unmarked) [Compound 90]"
  unit_tag: "nM"
  reported_relation: "="
  IC50: 3870
- compound: "CN(C(=O)c1nn(-c2ccccc2)c2c1CCC2)C1CCCC(C(=O)O)CC1 (centres unmarked) [Compound 131]"
  unit_tag: "nM"
  reported_relation: "="
  IC50: 1880
- compound: "O=C(NC1CCCC(C(=O)O)CC1)c1csc(Cc2ccccc2)c1 (centres unmarked) [Compound 107]"
  unit_tag: "nM"
  reported_relation: ">"
  IC50: 10000
- compound: "CC1CCc2c(sc3ncnc(NC4CC5(CCC(C(=O)O)CC5)C4)c23)C1 (centres unmarked) [Compound 92]"
  unit_tag: "nM"
  reported_relation: "="
  IC50: 806
- compound: "O=C(NC1CCCC(C(=O)O)CC1)c1nn(-c2ccc(F)cc2)c2c1CCC2 (centres unmarked) [Compound 116]"
  unit_tag: "nM"
  reported_relation: ">"
  IC50: 10000
- compound: "O=C(O)C1CCC2(CC1)CC(Nc1ncnc3[nH]c4ncccc4c13)C2 (centres unmarked) [Compound 133]"
  unit_tag: "nM"
  reported_relation: "="
  IC50: 1090
- compound: "Cc1csc2ncnc(NC3CC4(CCC(C(=O)O)CC4)C3)c12 (centres unmarked) [Compound 86]"
  unit_tag: "nM"
  reported_relation: "="
  IC50: 7960
- compound: "O=C(N[C@@H]1CC[C@@H](C(=O)O)CCC1(F)F)c1c[nH]c(-c2ccccc2)c1 [Compound 80]"
  unit_tag: "nM"
  reported_relation: ">"
  IC50: 10000
- compound: "Cc1cc(C(=O)NC2CCCC(C(=O)O)CC2)c(C)n1-c1ccc(F)cc1 (centres unmarked) [Compound 119]"
  unit_tag: "nM"
  reported_relation: ">"
  IC50: 10000
- compound: "Cc1cc(C(=O)N[C@@H]2CC[C@@H](C(=O)O)CCC2(F)F)c(C)n1-c1cccc(F)c1 [Compound 128]"
  unit_tag: "nM"
  reported_relation: ">"
  IC50: 10000
- compound: "O=C(O)C1CCC2(CC1)CC(Nc1ncnc3sc4c(c13)CCC4)C2 (centres unmarked) [Compound 91]"
  unit_tag: "nM"
  reported_relation: "="
  IC50: 4030
- compound: "O=C(O)C1CCC2(CC1)CC(Nc1ncnc3c1oc1ccccc13)C2 (centres unmarked) [Compound 84]"
  unit_tag: "nM"
  reported_relation: "="
  IC50: 5730
- compound: "O=C(NC1CC2(CCC(C(=O)O)CC2)C1)c1csc(C2CCCCC2)c1 (centres unmarked) [Compound 109]"
  unit_tag: "nM"
  reported_relation: ">"
  IC50: 10000
- compound: "Cc1cc(C(=O)NC2CCCC(C(=O)O)CC2)c(C)n1-c1ccccc1F (centres unmarked) [Compound 129]"
  unit_tag: "nM"
  reported_relation: ">"
  IC50: 10000
- compound: "COc1ccc(-n2c(C)cc(C(=O)NC3CCCC(C(=O)O)CC3)c2C)cc1 (centres unmarked) [Compound 124]"
  unit_tag: "nM"
  reported_relation: ">"
  IC50: 10000
- compound: "O=C(N[C@@H]1CC[C@@H](C(=O)O)CCC1(F)F)c1nn(-c2cccc(F)c2)c2c1CCC2 [Compound 121]"
  unit_tag: "nM"
  reported_relation: "="
  IC50: 1010
